# Experimental Details: Inhibition of parasite-specific trypanothione reductase
Metric Name: Ki

Ask: Report Ki, nothing else, for this molecule: CN(C)CCOc1cc2ccc(OC3=CC(=O)c4cc5ccccc5cc4C3=O)cc2oc1=O
Result: 2700 nM

====

# Experimental Details: Selectivity index, ratio of ED50 for mammalian cells to ED50 for Trypanosoma brucei rhodesiense
# Format: toxicity
# Measurement Parameters: read-out: Ratio ED50
Metric Name: selectivity ratio
Give bare numbers.

Ask: Report selectivity ratio, nothing else, for this compound: O=C1C=C(Oc2ccccc2)C(=O)c2ccccc21
Result: 74

====

# Measurement Target: Amyloid-beta precursor protein (Homo sapiens)
# Sequence (P05067 whole entry): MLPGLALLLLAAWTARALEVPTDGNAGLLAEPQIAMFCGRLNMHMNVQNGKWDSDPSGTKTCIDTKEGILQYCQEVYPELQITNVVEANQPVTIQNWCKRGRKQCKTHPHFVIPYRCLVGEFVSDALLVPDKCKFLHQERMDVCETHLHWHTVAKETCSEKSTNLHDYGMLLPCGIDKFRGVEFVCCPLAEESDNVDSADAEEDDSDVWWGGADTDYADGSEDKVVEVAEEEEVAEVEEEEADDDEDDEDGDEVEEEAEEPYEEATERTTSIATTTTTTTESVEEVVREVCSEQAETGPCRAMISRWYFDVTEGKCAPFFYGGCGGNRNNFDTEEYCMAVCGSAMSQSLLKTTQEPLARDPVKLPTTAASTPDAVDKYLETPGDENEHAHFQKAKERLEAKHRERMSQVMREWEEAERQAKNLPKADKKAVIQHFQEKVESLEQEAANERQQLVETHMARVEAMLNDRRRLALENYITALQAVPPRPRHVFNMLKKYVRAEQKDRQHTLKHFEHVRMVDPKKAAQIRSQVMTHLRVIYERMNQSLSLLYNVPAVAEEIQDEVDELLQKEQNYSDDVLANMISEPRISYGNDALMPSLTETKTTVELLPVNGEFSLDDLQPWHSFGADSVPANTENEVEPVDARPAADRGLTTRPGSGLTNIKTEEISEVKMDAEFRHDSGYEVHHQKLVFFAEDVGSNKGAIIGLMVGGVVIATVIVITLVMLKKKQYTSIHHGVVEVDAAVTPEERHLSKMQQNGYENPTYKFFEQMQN
# Experimental Details: Inhibition of self-mediated amyloid beta (1 to 42) aggregation (unknown origin) after 24 hrs by thioflavin T fluorometric assay
Metric Name: pIC50
One number for each entry, as −log10 of the molar value.

Ask: Report pIC50, nothing else, for this compound: O=C(Cc1ccccc1Nc1c(Cl)cccc1Cl)NCCCNCCCNC1=CC(=O)C(NCCCNCCCNC(=O)Cc2ccccc2Nc2c(Cl)cccc2Cl)=CC1=O
Result: 5.51

Cited source: ChEMBL document CHEMBL3585239
